Recorded Ki, one value per entry.
target: HIV-1 protease (Human immunodeficiency virus type 1 group M subtype B, UniProt P04585)
Numeric only. Scale: nM

Q. # query: Ki of entry O=C(N[C@@H](Cc1ccccc1)[C@H](O)CN1CCCC/C=C/CCCOc2cccc(c2)S1(=O)=O)O[C@H]1CO[C@H]2OCCC21 (stereo partly drawn) [Compound 225a]
A. 2.4

Q. # query: Ki of entry CC(C)CN(C[C@@H](O)[C@H](Cc1ccccc1)NC(=O)O[C@@H]1CCOC1)[C@H]1CCNC1=O
A. 730

Q. # query: Ki of entry Cc1c(O)cccc1C(=O)N[C@@H](Cc1ccccc1)[C@H](O)CN(CC(C)C)S(=O)(=O)c1ccc(F)c(N)c1
A. 56

---

biological target: HIV-1 protease (Human immunodeficiency virus type 1 group M subtype B, UniProt P04585); construct: made in house; host or cells: E. coli BL21 (dE3)pLysS, pET30a vector; test: HIV-1 Protease Inhibition Assay; assay type: biochemical; conditions: fluorogenic substrate assay
REPORTED_METRIC: IC50
Reply with the number, then its unit.

Completed entries (count: 2):
# MOLECULE, IC50
measured = [
    ("CNCc1ccc(S(=O)(=O)N(CC(C)C)C[C@@H](O)[C@H](Cc2ccccc2)NC(=O)OC2CC3CCO[C@@H]3C2)cc1 (stereo partly drawn) [Compound 126]", "15 nM"),
    ("CC(C)CN(C[C@@H](O)[C@H](Cc1ccccc1)NC(=O)OC1CO[C@H]2OCCC12)S(=O)(=O)c1cccc(CO)c1 (stereo partly drawn) [Compound 114]", "1.1 nM"),
]

Pending molecule:
Q. Could you share what IC50 was measured for Cc1ccc(S(=O)(=O)N(CCN(C)C)C[C@@H](O)[C@H](Cc2ccccc2)NC(=O)O[C@@H]2CO[C@@H]3OCCC[C@@H]32)cc1CO [Compound 160] , tested on HIV-1 protease (Human immunodeficiency virus type 1 group M subtype B, UniProt P04585)?
A. 231 nM

---

target: HIV-1 protease (Human immunodeficiency virus type 1 group M subtype B); construct: made in house; host or cells: E. coli BL21 (dE3)pLysS, pET30a vector; assay: HIV-1 Protease Inhibition Assay; type: biochemical; details: cells marked (pM) in a column headed nM
Recorded IC50, one value per entry.
Numeric only. Scale: pM

Completed entries (count: 3):
# COMPOUND, IC50 [pM]
rows = [
    ("COc1ccc(S(=O)(=O)N(C[C@H]2CCC(=O)N2)C[C@@H](O)[C@H](Cc2ccccc2)NC(=O)OC2CO[C@H]3OCC[C@@H]23)cc1 (stereo partly shown)", 17),
    ("Nc1ccc(S(=O)(=O)N(C[C@H]2CCC(=O)N2)C[C@@H](O)[C@H](Cc2ccccc2)NC(=O)OC2CC[C@H]3OCC[C@@H]23)cc1 (stereo partly shown)", 26),
    ("Nc1ccc(S(=O)(=O)N(C[C@H]2CCC(=O)N2)C[C@@H](O)[C@H](Cc2ccccc2)NC(=O)OC2CO[C@H]3OCC[C@@H]23)cc1 (stereo partly shown)", 20),
]

Pending compound:
Q. Could you share what IC50 was measured for COc1ccc(S(=O)(=O)N(C[C@@H]2CCC(=O)N2)C[C@@H](O)[C@H](Cc2ccccc2)NC(=O)OC2CO[C@H]3OCC[C@@H]23)cc1 (stereo partly shown) , tested on HIV-1 protease (Human immunodeficiency virus type 1 group M subtype B)?
A. 14
